Reference source for all entries: PubChem BioAssay (Tox21)

- method: qHTS RealTime-Glo MT Cell Viability Assay in HEK293 cells - 16 hour (AID 1224872); note: nearly all actives have a fitted effect of over 50% in size; note: potency is the fitted concentration of half-maximal effect
- condition details: RealTime-Glo luminescence; series mostly up to 76.8 µM
Results filed as inconclusive are left out. The source made the active and inactive calls. Calls come from the whole dose curve; as a rule, active = well fitted cell-killing curve with a large enough effect in the repeat runs; inconclusive = weak or mixed curves, or effect the other way; inactive = flat fitted curve, though single readings scatter.
parameter: Potency

// below: answered molecules
molecule: O=S(=O)(C(Cl)(Cl)Cl)C(Cl)(Cl)Cl
reported result: 12.3 µM (active)
//
molecule: C[C@]12CC[C@@H](O)C[C@@H]1CC[C@@H]1[C@@H]2CC[C@]2(C)C(=O)CC[C@@H]12
reported result: 38.9 µM (active)
//
molecule: Cc1cc(C(C)(C)c2ccc(O)c(C)c2)ccc1O
reported result: 20.8 µM (active)
//
molecule: CC1COC(Cn2cncn2)(c2ccc(Oc3ccc(Cl)cc3)cc2Cl)O1 (configuration not stated)
reported result: 21.9 µM (active)
//
molecule: Cc1ccc(N(SC(F)(Cl)Cl)S(=O)(=O)N(C)C)cc1
reported result: 5.49 µM (active)
//
molecule: Nc1ccc([N+](=O)[O-])cc1
reported result: 21.9 µM (active)

Q) Tell me its Potency given Cc1nnc2n1-c1sc(CCc3ccc(CC(C)C)cc3)cc1C(c1ccccc1Cl)=NC2C (configuration not stated) as the entry.
A) 19 µM (active)

Q) Tell me its Potency given CCN(CC)C(=O)Cl as the entry.
A) inactive
